Measured z-score of individual entries
experiment: qHTS for identification of novel therapeutic agents for treatment of microphthalmiaassociated transcription factor (MiT) renal cell carcinoma (RCC) (AID 1963991); conditions: TFE3-RCC viability, CellTiter-Glo, 48 h; measured here: UOK124 Z-AUC; stronger effect = lower value;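 also: curves scaled with 100% = DMSO viability and 0% = empty wells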
Records with an inconclusive call do not appear.
Could you keep your reply to the number by itself?

These recorded examples may help you get a feel for the data.
[[record]]
compound = "CN[C@H]1[C@@H](O[C@@H]2[C@H](O[C@@H]3[C@@H](O)[C@@H](O)[C@@H](N=C(N)N)[C@@H](O)[C@@H]3N=C(N)N)O[C@H](C)[C@@]2(O)C=O)O[C@@H](CO)[C@@H](O)[C@H]1O"
experimental_value = 1.27

[[record]]
compound = "Cc1ccc(C(=O)N(CCCN)[C@@H](c2nc3cc(Cl)ccc3c(=O)n2Cc2ccccc2)C(C)C)cc1"
experimental_value = -1.53

[[record]]
compound = "CO[C@H]1/C=C\\O[C@@]2(C)Oc3c(C)c(O)c4c(O)c(c5c(nc6cc(C)ccn65)c4c3C2=O)NC(=O)C(C)=CC=C[C@H](C)[C@H](O)[C@@H](C)[C@@H](O)[C@@H](C)[C@H](OC(C)=O)[C@H]1C"
experimental_value = 1.17


Can you share its z-score? I mean this compound: COc1cccc(OC)c1-c1cc(C(=O)NC2(C(=O)O)C3CC4CC(C3)CC2C4)nn1-c1ccnc2cc(Cl)ccc12 (configuration not stated)
0.441

And `CCC=CC[C@H]1C(=O)CC[C@@H]1CC(=O)OC` ?
0.558

And `N=C1SC(=Cc2ccc(-c3ccc4c(c3)C(=O)NC4=O)o2)C(=O)N1c1ccc(Br)cc1` ?
0.836

And `CC[C@H](C=C[C@@H](C)[C@H]1CC[C@H]2[C@@H]3CC=C4C[C@@H](O)CC[C@]4(C)[C@@H]3CC[C@]12C)C(C)C` ?
0.915

* * *

experiment: qHTS Screen of the MIPE 4.0 Collection Against Ewings Sarcoma (RDES) (AID 1259252); conditions: RD-ES Ewing sarcoma viability, CellTiter-Glo, 48 h; series mostly up to 45.8 µM; also: nearly all actives have a fitted effect of over 35% in size; also: potency is read from the fitted curve at half-maximal effect
Inconclusive results are not listed. Active and inactive are the calls of the source. Calls come from the whole dose curve; as a rule, active = well fitted inhibition curve with a large enough effect; inconclusive = small, poorly fitted or top-dose-only effect; inactive = no such curve, though single readings can be large or run the other way.
OBSERVABLE: Potency

[[record]]
compound = "OC[C@H]1O[C@@H](O[C@H]2[C@@H](O)[C@@](O)(CO)O[C@@H]2CO)[C@H](O)[C@@H](O)[C@@H]1O"
experimental_value = "inactive"

[[record]]
compound = "CCCCCCCCCCCCCC(=O)N[C@H](CO)[C@H](O)c1ccc([N+](=O)[O-])cc1"
experimental_value = "inactive"

[[record]]
compound = "Cc1csc(-c2nnc(Nc3ccc(Oc4ncccc4-c4ccnc(N)n4)cc3)c3ccccc23)c1"
experimental_value = "0.0296 µM (active)"

[[record]]
compound = "CCOC(=O)[C@H](CCc1ccccc1)N[C@@H](C)C(=O)N1CCCC1C(=O)O (stereo not given in full)"
experimental_value = "20.9 µM (active)"

[[record]]
compound = "CCC(=O)OCC(=O)[C@@]1(OC(=O)CC)[C@@H](C)C[C@@H]2[C@H]3CCC4=CC(=O)C=C[C@]4(C)[C@@]3(F)[C@@H](O)C[C@@]21C"
experimental_value = "inactive"


Attention now turns to another entry.
Can you share its Potency? I mean this compound: `CC(C)c1onc(-c2c(Cl)cccc2Cl)c1COc1ccc(C=Cc2cccc(C(=O)O)c2)c(Cl)c1`
inactive
